Provide the reported solubility (mole fraction) of each item.
Details: in 1,4-dioxane, 283.15 K
One number for each entry.

INSERT INTO assay_data (smi, readouttype, numericresult) VALUES
  ('O=C1OC(=O)c2c(Cl)cccc21', 'solubility (mole fraction)', 0.185);

Next:
Consider O=C1OC(=O)c2cc(Cl)ccc21 . Its measured solubility (mole fraction) is 0.0825

###

Please go through the items and note down their solubility (mole fraction).
Details: in acetone, 298.15 K

INSERT INTO results (smi, result) VALUES
  ('O=C1OC(=O)c2cc(Cl)ccc21', 0.287);

Here's the next entry for you.
What the record says about O=C1OC(=O)c2c(Cl)cccc21 : solubility (mole fraction) is 0.218
